Hello, the source for this data is PubChem BioAssay, in case you need it.

Molecular target: Pro-neuregulin-1, membrane-bound isoform (Homo sapiens) (UniProt Q02297)
Sequence (Q02297 whole entry, looked up, canonical isoform): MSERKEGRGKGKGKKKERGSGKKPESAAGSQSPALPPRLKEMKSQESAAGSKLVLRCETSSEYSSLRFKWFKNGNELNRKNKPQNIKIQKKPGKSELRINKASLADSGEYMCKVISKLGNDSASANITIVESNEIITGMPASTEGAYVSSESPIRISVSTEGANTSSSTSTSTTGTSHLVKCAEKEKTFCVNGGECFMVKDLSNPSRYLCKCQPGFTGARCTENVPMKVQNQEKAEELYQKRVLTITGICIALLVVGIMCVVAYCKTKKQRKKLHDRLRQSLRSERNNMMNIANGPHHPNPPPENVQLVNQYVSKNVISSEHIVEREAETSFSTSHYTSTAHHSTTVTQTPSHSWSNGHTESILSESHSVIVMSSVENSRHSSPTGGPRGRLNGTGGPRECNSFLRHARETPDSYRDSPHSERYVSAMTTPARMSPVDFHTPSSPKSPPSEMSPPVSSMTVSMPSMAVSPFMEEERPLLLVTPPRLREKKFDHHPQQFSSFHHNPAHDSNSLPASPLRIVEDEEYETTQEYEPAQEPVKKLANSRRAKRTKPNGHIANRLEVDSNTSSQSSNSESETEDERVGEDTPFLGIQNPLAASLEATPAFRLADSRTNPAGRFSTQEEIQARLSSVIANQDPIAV
Assay: NRG1 binders on small-molecule microarrays, primary screen, psychiatric disease protein project, biochemical, small-molecule microarray, fluorescence 635/667 (AID 1075);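 further: score combines 667 nm spot fluorescence with signal to noise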
Conditions: NRG1 binding, 635 nm fluorescence, higher = more signal
PROPERTY_LABEL: composite z-score

Q) Give measured composite z-score for CCOC(=O)CCN1C(=O)[C@H]2[C@H]3[C@H](O)[C@H](O)CC(=NNC(=O)OCC)[C@@H]3CC[C@H]2C1=O (Pro-neuregulin-1, membrane-bound isoform (Homo sapiens) (UniProt Q02297)).
A) -0.388

Q) Report composite z-score from Pro-neuregulin-1, membrane-bound isoform (Homo sapiens) (UniProt Q02297) testing of C#CCCCON=C1C[C@@H](O)[C@@H](O)[C@@H]2[C@@H]3C(=O)N(C4CCCCC4)C(=O)[C@@H]3CC[C@H]12
A) 0.717

Q) Give Pro-neuregulin-1, membrane-bound isoform (Homo sapiens) (UniProt Q02297) composite z-score for the following compound: CCCNC(=O)OC[C@H]1O[C@H](CCON=C(C)CCC(=O)OC[C@H]2O[C@H](C#Cc3ccccc3)C=C[C@@H]2Oc2ccc(C)cc2)C=C[C@@H]1Oc1ccc(OC)cc1
A) -0.21

Q) Quote Pro-neuregulin-1, membrane-bound isoform (Homo sapiens) (UniProt Q02297) composite z-score for entry CCOC(=O)NN=C1C[C@@H](O)[C@@H](O)[C@@H]2[C@@H]3C(=O)N(Cc4ccc5c(c4)OCO5)C(=O)[C@@H]3CC[C@@H]12 .
A) 0.416

Q) Give composite z-score; test system Pro-neuregulin-1, membrane-bound isoform (Homo sapiens) (UniProt Q02297); compound CC(C)C(=O)N[C@@H]1CCCN1C(=O)C=Cc1ccccc1
A) 0.208

Q) Lab note: record composite z-score of Cc1ccc(S(=O)(=O)N[C@H]2COC(=O)[C@@H](C)COC(=O)[C@H](C)NC(=O)CC=C[C@H]2C)cc1 tested on Pro-neuregulin-1, membrane-bound isoform (Homo sapiens) (UniProt Q02297).
A) -0.476

Q) Report composite z-score from Pro-neuregulin-1, membrane-bound isoform (Homo sapiens) (UniProt Q02297) testing of CCOC(=O)NN=C1C[C@@H](O)[C@@H](O)[C@@H]2[C@@H]3C(=O)N(Cc4ccccc4)C(=O)[C@@H]3CC[C@@H]12
A) 0.318

###

Assign z-score to each entry below.
Experiment: P. aeruginosa biofilm formation inhibitors, primary screen, PAO1 strain, BacTiter-Glo luminescence, LB-PBS (AID 1144)
Details: 12 h, higher = more signal
Would you mind answering with just the numeric figure?

Q) Return z-score for the following compound: C[C@@H]1CC[C@@H](C(=O)O)N[C@H]1c1ccc(-c2ccco2)cc1
A) -0.778

Q) Please look at this compound and report its z-score: CCN1C(=O)[C@H]2[C@H]3[C@H](O)[C@H](O)CC(=NNC(=O)OCc4ccc(OC)cc4)[C@H]3CC[C@H]2C1=O
A) 0.619

Q) Provide only the value of recorded z-score for CC(C)CON=C1C[C@@H](O)[C@@H](O)[C@@H]2[C@@H]3C(=O)N(c4cccc(Oc5ccccc5)c4)C(=O)[C@@H]3CC[C@H]12
A) 0.198

Q) Using the record for CC(C)=NOC[C@@H](O)COCc1ccco1 , state its measured z-score.
A) -0.209

Q) Find the measured z-score of CC(C)=NOCc1ccc(-c2cn([C@@H]3COC[C@H]3O)nn2)cc1 and report it.
A) 1.08

Q) For the compound COC(=O)C1=C(C)N(Cc2ccccc2)[C@]23O[C@](C(=O)OC)(C(=O)N2[C@@H]1c1ccccc1)[C@@H](c1ccccc1)[C@@H]3C(=O)c1ccccc1 , report z-score.
A) -0.137

Q) State its z-score: C=CC[C@@H](O)c1ccc(O)c(F)c1
A) -0.222

Q) Provide only the value of recorded z-score for C#CCCCON=C1C[C@@H](O)[C@@H](O)[C@@H]2[C@@H]3C(=O)N(C4CCCCC4)C(=O)[C@@H]3CC[C@H]12
A) 0.353

Q) Return z-score (reported value) for this compound: COC(=O)C1=C(C)N(Cc2ccccc2)C2=C(C(C)=O)C[C@@](O)(C(=O)OC)C(=O)N2[C@@H]1c1ccccc1
A) -2.16

Q) // Input: C=CCN(Cc1ccccc1)C(=O)C1N(CCOCCO)C(=O)C2C(C(=O)O)C3C=CC21O3 (configuration not stated) . Output its z-score only.
A) -0.0168

Q) Fill in z-score for record C[C@@H](ON=C1[C@H]2CCn3c(=O)n(-c4ccccc4)c(=O)n3[C@H]2[C@H](O)[C@@H]2O[C@H]12)c1cn([C@H](CO)Cc2ccccc2)nn1
A) 0.867

Q) Quick one: give measured z-score for CC(C)=NO[C@@H](C)c1cc(-c2c(C)cc(C)cc2C)no1
A) -1.37

Q) Recall and state the measured z-score for C=CCN(C(=O)C(c1cccs1)N(C(=O)/C=C\C(=O)O)c1c(Cl)cccc1CO)c1ccc(OC)cc1 (configuration not stated) .
A) 0.894

Q) Retrieve z-score measured for CC(=O)OC[C@H]1O[C@H](C#CC(C)(C)C)C=C[C@@H]1OC(C)=O and print it.
A) 0.992

Q) Please indicate z-score recorded for CC(C)C(=O)N[C@@H]1CCCN1C(=O)C=Cc1ccccc1
A) 1.06

Q) Provide z-score value for the following compound: CCCNC(=O)OC[C@H]1O[C@H](CCON=C(C)CCN2CCc3nc(-c4ccccc4)c(-c4ccccc4)cc3C2)C=C[C@@H]1Oc1ccc(OC)cc1
A) -0.158

Q) Give z-score for the following compound: COC(=O)C1=C(C)N(Cc2ccccc2)C2=C3C(=O)CCC[C@@H]3[C@@](O)(C(=O)OC)C(=O)N2[C@@H]1c1ccccc1
A) 0.311

###

Experiment: MM1S cell viability effects, profiling panel, calcein-AM fluorescence, 48 h, basal (AID 1165);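 further: viability of MM1S multiple myeloma cells under basal unstimulated conditions; test concentration not given here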
Details: higher = more signal
Consider the following molecules; for each one, report its z-score.

Q) Please report the measured z-score for COc1ccc(COC(=O)NN=C2C[C@@H](O)[C@@H](O)[C@@H]3[C@@H]4C(=O)N(C(C)(C)C)C(=O)[C@@H]4CC[C@H]23)cc1
A) -0.156

Q) Answer with the recorded z-score of CCOC(=O)CCN1C(=O)[C@H]2[C@H]3[C@H](O)[C@H](O)CC(=NNC(=O)OCC)[C@@H]3CC[C@H]2C1=O only.
A) -0.847

Q) Give reported z-score value for CCOC(=O)NN=C1C[C@@H](O)[C@@H](O)[C@@H]2[C@@H]3C(=O)N(Cc4ccccc4)C(=O)[C@@H]3CC[C@@H]12
A) 0.599

###

Assay: HepG2 liver cancer cell viability effects, profiling panel, resazurin fluorescence, 24 h, PK04 Diversity Set (AID 1172); further: test concentration not given here
Conditions: higher = more signal
PROPERTY_LABEL: z-score

Q) Using known records, supply z-score for C=C(C)C(=O)OC[C@@H]1CN2[C@@H](CC[C@@H](C)[C@@H]2c2ccc(Br)cc2)C(=O)O1
A) 0.726

Q) Give reported z-score value for CC(C)C(=O)N[C@@H]1CCCN1C(=O)C=Cc1ccccc1
A) -0.0786

Q) Please list z-score recorded for the compound CCCNC(=O)OC[C@H]1O[C@H](CCON=C(C)CCN2CCc3nc(-c4ccccc4)c(-c4ccccc4)cc3C2)C=C[C@@H]1Oc1ccc(OC)cc1
A) 0.0965

###

Molecular target: Calmodulin-1 (Homo sapiens)
Test: CALM1 binders on microarrays, EGTA buffer, profiling panel, biochemical, small-molecule microarray, Cy5-labelled CALM1 (AID 1111);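 further: labelled calmodulin applied in Tris saline Tween buffer holding calcium plus EGTA and DTT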
Conditions: Cy5-CALM1 binding fluorescence, higher = more signal
Use Met when the recorded composite z-score is no lower than -0.5; use Not met when it is lower.

Q) Does composite z-score meet or surpass -0.5 for CC(=O)OC[C@H]1O[C@H](C#CC(C)(C)C)C=C[C@@H]1OC(C)=O ?
A) Met

Q) Test whether the molecule CO[C@@H]1C=CCC(=O)N2CCC[C@H]2C(=O)OC[C@H](C)C(=O)OC[C@H]1C records composite z-score of -0.5 or higher.
A) Not met

Q) Would you say CC(C)=NOCc1ccc(-c2cn([C@@H]3COC[C@H]3O)nn2)cc1 shows composite z-score at minimum -0.5?
A) Met

Q) API: above_or_equal(metric=composite z-score, cutoff=-0.5) for item CC(C)CCN1CCc2nc(-c3ccccc3)c3c(c2C1)CO[C@@H](C)C3
A) Met

Q) Is composite z-score at least -0.5? Consider CCOC(=O)NN=C1C[C@@H](O)[C@@H](O)[C@@H]2[C@@H]3C(=O)N(Cc4ccccc4)C(=O)[C@@H]3CC[C@@H]12
A) Not met

Q) Reported composite z-score at or above -0.5? CCN1C(=O)[C@H]2[C@H]3[C@H](O)[C@H](O)CC(=NOC)[C@@H]3CC[C@H]2C1=O
A) Met
